- System: HOP-92 NSCLC
- test: NCI tumour cell line growth inhibition, 48 h
Where a SMILES comes first, the peptide text is derived from it. [ ]: non-standard residue; d: D form. The star is where a group is joined. ξ: configuration not given here. Cbz = O=C(OCc1ccccc1)*; ξK = NCCCCC(N)C(=O)O
value kind: TGI (µM)

compound	comparison operator	experimental result
NCCCCC(NC(=O)OCc1ccccc1)C(=O)NCC(N)=O (stereo not given) (Cbz-[ξK]-Gly-NH2)	>	100
Cc1ccc2nc(C=Nc3ccccc3Cl)cc(C)c2c1	=	83
O=c1c2sc3nc(NCCN4CCCCC4)ncc3c2ncn1-c1ccccc1	=	95.5
COC(=O)C1=C(C)NC(C)=C(C(=O)OC)C1c1ccc(NO)cc1	=	12.7
CN(C)C=C1C(=O)N(C)C(=O)N(C)C1=O	>	100
CCCCCCCCCCCCCCCCP(=O)(OC)OC	=	35.3
COc1cc(OC)cc(Oc2nc3cc(N)cc(N)c3nc2-c2ccccc2)c1	=	8.9
CC12OC(=O)[C@@]3(O)CCC4C(C[C@H]5O[C@]56CC=CC(=O)[C@]46C)C45OC[C@H]6C(=O)O[C@@H]1C[C@@]6(C)[C@H](C4=O)C23O5 (stereo not given in full)	=	5.67
Cc1cc(C)c(CNC(=O)c2cc(-c3ccc(CN4CCOCC4)cc3)cc3c2cnn3C2CCCC2)c(=O)[nH]1	=	27.2
CN(C)c1ccc2nc3ccc(=N)cc-3sc2c1	=	41.6

----------
- Tested on: OVCAR-3 ovarian
- test: NCI tumour cell line growth inhibition, 48 h
Consider the following compounds and their measured TGI readings.
value kind: TGI

compound	experimental result
COc1cc2c(cc1O)N=C[C@@H]1C[C@@H](F)CN1C2=O	0.808 µM
COc1ccccc1N1C(=O)C2C3c4ccccc4C(OC(C)=O)(c4ccccc43)C2C1=O (stereo not given)	> 100 µM
Cc1ccc(C(=O)Nc2ccc(S(=O)(=O)O)c3cc(S(=O)(=O)O)cc(S(=O)(=O)O)c23)cc1NC(=O)Nc1cc(C(=O)Nc2ccc(S(=O)(=O)O)c3cc(S(=O)(=O)O)cc(S(=O)(=O)O)c23)ccc1C	> 87.5 µM
CC(=O)OCC1CCC(=C2C(=O)OC(C)(C)OC2=O)N1 (stereo not given)	> 100 µM
O=C(O)c1ccccc1SCc1cccc2c(=O)c3ccc(Cl)cc3oc12	> 50 µM
Cc1cccc(NC(=O)c2sc3nc4c(cc3c2N)CCCC4)c1	> 100 µM
CCOC(=O)c1cc(C(=O)c2ccc(Cl)cc2)n2ccc(-c3cc[n+](CC(=O)c4ccc(OC)cc4)cc3)cc12	3.65 µM
COc1cc2c(cc1OC)C1C(O)C(OC)C(Br)C3(Br)CCN(C2)C13 (stereo not given)	> 100 µM
CC(=O)Oc1ccc2c(c1OC(C)=O)CCC1C2=CC[C@]2(C)C(=O)CCC12 (stereo not given in full)	6.2 µM
O=C1/C(=C/c2ccc3c(c2)CCC3)Cc2cc3c(cc21)CCC3	> 100 µM

----------
- Test system: HCC-2998 colon
- test: NCI tumour cell line growth inhibition, 48 h
value kind: GI50

>>> df
                               input_smiles  experimental_result
0  Cn1cc(C2=C(Sc3ccccc3)C(=O)NC2=O)c2ccccc21            > 12.3 µM
1  CC(C)(O)c1coc(S(=O)(=O)/N=C(\O)Nc2c3c(cc4c2CCC4)CCC3)c1             > 100 µM
2  CC(C)(C)N=Cc1ccccc1[O-].CC(C)(C)N=Cc1ccccc1[O-].[Co+2]             > 100 µM
